Values from patent US20250154283A1

# Target entity: T1, biotinylated human VWF cysteine knot (CK) domain construct (human, UniProt P04275 2724-2813, biotinylated in vitro (BirA) on the biotinylation tag; one N-glycan)
# T1 construct: Expressed in HEK293 EBNA cells; disulfide-linked homodimer; also called human VWF CK; human VWF CK domain; not shown: in vitro biotinylation tag, HRV-3C site and 3 VWF residues before the CK domain
# Measurement description: SPR, scFv captured via anti-SV5, CK domain injected, pH 5.5, apparent Kd;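 further: scFvs from crude yeast supernatants captured on chip-bound anti-SV5 antibody, Kd computed as koff divided by kon, dimeric CK construct likely makes affinity appear higher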
Outcome measure: Kd (nM)
Quick reminder: number only, in nM, skip the unit.

Binder	Uom	Kd
Lib1_P1_A5_scFv (scFv, VH-linker-VL; not shown: C-terminal 3xFLAG and SV5 tags) scFv: QVQLVQSGAEVKKPGASVKVSCKVSGDTLSNYAIHWVRQAPGKGLEWMGGINPNAGTTIYAQKFQGRVTMTEDTSTDTAYMELSSLKSEDTAVYYCARDSSSWCPVGYYYYYMDVWGKGTTVTVSSSGGSTITSYNVYYTKLSSSGTDIQMTQSPSSVSASVGDRVTITCRASQSIGDFLAWYQQKPGKAPKLLIYDASHLQTGVPSRFSGSGSGTDFTLTISSLQPEDFANYYCQQTSTIPPTFGGGTKVEIK	nM	5.02

Turning now to a further record.
Exercise: Please give the measured Kd for this binder: Lib4_P2_A3_scFv (scFv, VH-linker-VL; not shown: C-terminal 3xFLAG and SV5 tags) scFv: QVQLQESGPGLVKPSQTLSLTCTVSGVSLSTSDYSWSWIRQPPGKGLEWIGYISPPGRSDYNPSLKSRVTMSVDTSKNQFSLKVNSVTAADTAVYYCARHSSSGWYSTYDFDSWGQGTMVTVSSSGGSTITSYNVYYTKLSSSGTEIVMTQSPATLSLSPGERATLSCRASQNIHSNLAWYQQKPGQAPRLLIYGATTRATGIPARFSGSGSGTDFTLTISSLEPEDFAVYYCQQSYTTPLTFGGGTKVEIK
Key: 1.93
